- test-summary: yeast display, Sf9 membrane polyspecificity reagent, FACS + sequencing; frameworks hold sequencing errors
test-readout: polyreactivity (PSR sort gate)

* QVQLVESGGGLVQAGGSLSLSCAASGSNFKAYAMGWYRQAPGKERELVAAITKSGGRTYYADSVKGRFTISRDNAKNTVYLQMKSLNPEDTAVYSCAAVFRPDSSAYRYYYWGQGTQVTVST | high polyreactivity
* QVQLVESGGRLVQAGGSLRLSCAASGSIFFSNAMGWYRQAPGKERELVAAITSTGGSTYYADSVKGRFTISRDNAKNTVYLQMNSLKPEDTAVYYCAAASRRGYYYWGQGTQVTVSS | high polyreactivity
* QVQLVESGGGLVHAGGSLRLSCAASGGILVFYAMGWYRQAPGKERELVAAINVSGGSTYYADSVKGRYTISRDNAKNTVYLQMNSLKPEDTAVYYCAALGPYLDYGVQYGYWGQGTQVTVSS | low polyreactivity
* QVQLVESGGGLVQAGGSLRLSCAASGRIFGANAMGWYRQAPGKERELVAVITGGGGTYYADSVKGRFTISRDNSKNTVYLQINSLKPEDTAVYYCDWPRYYYTYPSHPMDYWGQGTQVTVSS | low polyreactivity
* QVQLVESGGGLVQAGGSLRLSCAASGLTFGNYAMGWYRQTPGKERELVAAISKRGGTTYYADSVKGRFTISRDTAKNTVYLQMNSLKPEDTAVYYCSARDYSHPTDDNYWGPGTQVTVSS | high polyreactivity

====

- test-summary: yeast display, Sf9 membrane polyspecificity reagent, FACS + sequencing; frameworks hold sequencing errors
test-readout: polyreactivity (PSR sort gate)

• QVQLVESGGGLVQAGGSLRLSCAASGRIFNRNAMGWYRQAPGKERELVAAITGSGGITYYADSVKGRFTISRDNAKNTVYLQMNSLKPEDTAVYYCAARAKFLSLPTYDYWGQGTQVTVSS = high polyreactivity
• QVQLVESGGGLVQAGGSLRLSCAASGSTFYVNAMGWYRQAPGKERELVAAISWTDDSTYYADSVKGRFTISRDNAKNTVYLQMNSLKPEDTAVYYCAAEQYRYYEVEYWGQGTQVTVSS = high polyreactivity
• QDQHVESGRGLVQEGGSLRLSSPPSGRTIYEYAIGWYRQAPGKETQLVAGITTSGGSTYYAVSVKGRFTISRDNAKNTVYLQMNSLKPEDTAVYYCAKYRKSRGDNDSWGQGTQVTVSS = high polyreactivity

====

- test-summary: yeast display, Sf9 membrane polyspecificity reagent, FACS + sequencing; frameworks hold sequencing errors
test-readout: polyreactivity (PSR sort gate)

- QVQLVESGGGLVQAGGSLRLSCAASGSNFSDNAMGWYRQAPRKERELVAAITSGGSTYYADSVKGRFTISRDKAKNTVYLQMNSLKPEDSAVYYCAADYWGQGTQVTVSS: low polyreactivity
- QVQLVESGGGLVQAGGSLRLSCAACGSTFSPNAMGWYRQAPGKERELVAAISGSGASTYYADSVKGRFTISRDNAKNTVYLQMNSLKPEDTAVYYCAADKPGIFSRFDYWGQGTQVTVSS: low polyreactivity
- QVQLVESGGGLVQAGGSLRLSCAASGLIFRQYAMGWYRPAPGKERELVAAITQTGGRTYYADSVKGRFTISRDNAKNTVYLQMNSLKPEDTAVYYCNALTFAAGDHYDYWGQGTQVTVSS: low polyreactivity
- QVQLVESGGGLVQAGGSLRLSCAASGFTLWLNAMGWSRQAPGKERELVAAITTSDDGTYYADSVNGRFTISRDTAKNTVYLQMNSLKPEDTAVYYCAADYYSVLYDYWGQGTQVTVSS: low polyreactivity
